experimental system: Transient receptor potential cation channel subfamily V member 4 (Homo sapiens, UniProt Q9HBA0)
Sequence (Q9HBA0 whole entry): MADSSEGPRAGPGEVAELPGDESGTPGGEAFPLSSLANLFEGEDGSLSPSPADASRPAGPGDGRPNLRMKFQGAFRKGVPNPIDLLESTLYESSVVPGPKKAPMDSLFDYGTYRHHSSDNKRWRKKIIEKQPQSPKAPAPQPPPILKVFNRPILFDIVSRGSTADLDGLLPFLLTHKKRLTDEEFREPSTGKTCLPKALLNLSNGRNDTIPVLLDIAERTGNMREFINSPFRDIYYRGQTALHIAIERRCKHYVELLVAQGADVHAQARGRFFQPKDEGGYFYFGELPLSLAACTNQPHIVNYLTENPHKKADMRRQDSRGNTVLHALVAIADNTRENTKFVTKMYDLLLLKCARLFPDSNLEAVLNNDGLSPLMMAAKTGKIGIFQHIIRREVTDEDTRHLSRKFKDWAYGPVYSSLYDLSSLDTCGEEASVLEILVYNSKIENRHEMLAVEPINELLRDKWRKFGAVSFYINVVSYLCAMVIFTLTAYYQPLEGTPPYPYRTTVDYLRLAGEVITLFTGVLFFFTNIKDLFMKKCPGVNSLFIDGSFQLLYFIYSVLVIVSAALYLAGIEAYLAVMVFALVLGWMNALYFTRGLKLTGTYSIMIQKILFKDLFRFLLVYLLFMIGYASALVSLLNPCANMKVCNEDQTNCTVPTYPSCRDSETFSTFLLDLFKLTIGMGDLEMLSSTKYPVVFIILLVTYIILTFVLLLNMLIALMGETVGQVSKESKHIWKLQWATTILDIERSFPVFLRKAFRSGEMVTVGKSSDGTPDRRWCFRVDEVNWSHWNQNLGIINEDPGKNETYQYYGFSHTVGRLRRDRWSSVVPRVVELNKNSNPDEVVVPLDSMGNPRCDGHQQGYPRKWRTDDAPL
assay info: Antagonist activity at human TRPV4 receptor expressed in HEK293 cells assessed as inhibition of EC80 of 4alpha-PDD-stimulated calcium flux after 10 mins
Type: cell-based
So basically: is IC50 under 900 nM? Then Condition met. Not under? Then Condition not met.

structure smiles | qualitative label
CC(C)N1CCN(S(=O)(=O)c2ccc(NC(=O)c3ccc(C(C)(C)C)cc3)cc2)CC1 | Condition met
CC(C)N1CCN(S(=O)(=O)c2ccc(NC(=O)c3ccc(C(F)(F)F)cc3F)cc2)CC1 | Condition met
CC(C)N1CCN(S(=O)(=O)c2ccc(NC(=O)c3ccc(-c4ccccn4)cc3)cc2)CC1 | Condition not met
CC(C)N1CCN(S(=O)(=O)c2ccc(NC(=O)c3ccc(C(F)(F)F)cc3)cc2)CC1 | Condition met
CC(C)N1CCN(C(=O)c2ccc(NC(=O)c3ccc(C(F)(F)F)cc3)cc2)CC1 | Condition not met
CC(C)N1CCN(S(=O)(=O)c2ccc(NC(=O)c3ccc(C(F)(F)F)cc3N)cc2)CC1 | Condition not met
CN(C)C1CCN(S(=O)(=O)c2ccc(NC(=O)c3ccc(C(F)(F)F)cc3)cc2)CC1 | Condition not met
CC(C)N1CCN(S(=O)(=O)c2ccc(NS(=O)(=O)c3ccc(C(F)(F)F)cc3)cc2)CC1 | Condition not met

* * *

experimental system: Transient receptor potential cation channel subfamily V member 4 (Mus musculus)
assay info: Antagonist activity at mouse TRPV4 receptor expressed in HEK293 cells assessed as inhibition of EC80 of 4alpha-PDD-stimulated calcium flux after 10 mins
Assay type: cell-based
pIC50: −log10 of the molar value.

structure smiles | pIC50
CC(C)N1CCN(S(=O)(=O)c2ccc(NC(=O)c3ccc(C(F)(F)F)cc3[N+](=O)[O-])cc2)CC1 | 6.49

* * *

assay info: Clearance in Wistar rat at 1.05 mg/kg, iv
Type: ADME, organism-based
particulars: in vivo

structure smiles | clearance [mL/min/kg]
CC(C)N1CCN(S(=O)(=O)c2ccc(NC(=O)c3ccc(S(F)(F)(F)(F)F)cc3)cc2)CC1 | 22.5

* * *

experimental system: Transient receptor potential cation channel subfamily V member 4 (Mus musculus, UniProt Q9EPK8)
Sequence (Q9EPK8 whole entry): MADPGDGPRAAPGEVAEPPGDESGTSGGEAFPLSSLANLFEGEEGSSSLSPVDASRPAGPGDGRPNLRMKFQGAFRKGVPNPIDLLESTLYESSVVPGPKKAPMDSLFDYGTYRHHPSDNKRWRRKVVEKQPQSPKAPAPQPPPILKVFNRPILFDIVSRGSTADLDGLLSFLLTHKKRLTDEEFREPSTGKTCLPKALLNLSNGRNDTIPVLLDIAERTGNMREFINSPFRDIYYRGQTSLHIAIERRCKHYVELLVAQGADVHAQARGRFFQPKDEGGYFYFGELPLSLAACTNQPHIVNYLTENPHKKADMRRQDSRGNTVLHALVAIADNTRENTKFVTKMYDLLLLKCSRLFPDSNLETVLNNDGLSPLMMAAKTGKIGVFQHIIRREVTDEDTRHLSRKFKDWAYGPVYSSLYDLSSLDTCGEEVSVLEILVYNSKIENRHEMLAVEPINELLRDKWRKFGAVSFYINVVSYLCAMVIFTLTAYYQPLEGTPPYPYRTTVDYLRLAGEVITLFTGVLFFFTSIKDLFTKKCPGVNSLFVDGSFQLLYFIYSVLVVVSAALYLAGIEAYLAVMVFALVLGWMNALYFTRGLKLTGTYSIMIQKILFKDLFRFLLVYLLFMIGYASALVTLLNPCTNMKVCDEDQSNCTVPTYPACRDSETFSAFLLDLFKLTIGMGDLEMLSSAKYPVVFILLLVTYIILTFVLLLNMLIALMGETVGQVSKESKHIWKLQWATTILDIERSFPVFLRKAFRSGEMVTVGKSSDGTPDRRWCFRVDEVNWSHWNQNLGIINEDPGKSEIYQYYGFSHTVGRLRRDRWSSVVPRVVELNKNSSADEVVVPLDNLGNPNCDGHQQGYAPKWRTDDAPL
assay info: Antagonist activity at mouse TRPV4 receptor expressed in HEK293 cells assessed as inhibition of 4alpha-PDD-stimulated calcium flux after 10 mins
Format: cell-based

structure smiles | IC50 [nM]
CC(C)N1CCN(S(=O)(=O)c2ccc(NC(=O)c3ccc(C(F)(F)F)cc3[N+](=O)[O-])cc2)CC1 | 57

* * *

assay info: AUC (infinity) in Wistar rat at 1.80 mg/kg, po
Type: ADME, organism-based
Parameters: dose 1.8 mg/kg, time infinity, route oral
particulars: in vivo, 1.8 mg/kg
measurement type: AUC(0-inf) (ng·h/mL)

structure smiles | measurement type | value reported
CC(C)N1CCN(S(=O)(=O)c2ccc(NC(=O)c3ccc(S(F)(F)(F)(F)F)cc3)cc2)CC1 | AUC(0-inf) | 303

* * *

assay info: Cmax in Wistar rat at 1.80 mg/kg, po
Assay type: ADME, organism-based
Set-up: dose 1.8 mg/kg, route oral
particulars: in vivo, 1.8 mg/kg

structure smiles | Cmax, ng/mL
CC(C)N1CCN(S(=O)(=O)c2ccc(NC(=O)c3ccc(S(F)(F)(F)(F)F)cc3)cc2)CC1 | 143

* * *

assay info: AUC (infinity) in Wistar rat at 32.50 mg/kg, ip
Assay type: ADME, organism-based
Design: dose 32.5 mg/kg, route intraperitoneal, time infinity
particulars: in vivo, 32.5 mg/kg
measurement type: AUC(0-inf) (ng·h/mL)

structure smiles | value reported
CC(C)N1CCN(S(=O)(=O)c2ccc(NC(=O)c3ccc(C(F)(F)F)cc3[N+](=O)[O-])cc2)CC1 | 16500

* * *

assay info: Half life in Wistar rat at 1.40 mg/kg, iv
Format: ADME, organism-based
particulars: in vivo, 1.4 mg/kg

structure smiles | half-life
CC(C)N1CCN(S(=O)(=O)c2ccc(NC(=O)c3ccc(C(F)(F)F)cc3[N+](=O)[O-])cc2)CC1 | 42.6 min

* * *

assay info: Cmax in Wistar rat at 32.50 mg/kg, ip
Type: ADME, organism-based
Set-up: dose 32.5 mg/kg, route intraperitoneal
particulars: in vivo, 32.5 mg/kg

structure smiles | value unit | Cmax
CC(C)N1CCN(S(=O)(=O)c2ccc(NC(=O)c3ccc(C(F)(F)F)cc3[N+](=O)[O-])cc2)CC1 | ng/mL | 10600

* * *

experimental system: potassium channel (voltage-gated potassium channel family) (Homo sapiens, UniProt O43525+O43526+O95259+P16389+P17658+P22001+P22459+P22460+P48547+P51787+P56696+Q03721+Q09470+Q12809+Q14003+Q14721+Q16322+Q6PIU1+Q8NCM2+Q8TAE7+Q8TDN1+Q8TDN2+Q92953+Q96KK3+Q96L42+Q96PR1+Q96RP8+Q9BQ31+Q9H252+Q9H3M0+Q9NR82+Q9NS40+Q9NSA2+Q9NZV8+Q9UIX4+Q9UJ96+Q9UK17+Q9ULD8+Q9ULS6+Q9UQ05)
assay info: Binding affinity to potassium channel (unknown origin) assessed as inhibition of control specific binding at 10 uM
Format: protein assay

structure smiles | value unit | inhibition at 10 µM
CC(C)N1CCN(S(=O)(=O)c2ccc(NC(=O)c3ccc(C(F)(F)F)cc3[N+](=O)[O-])cc2)CC1 | % | -25

* * *

experimental system: Transient receptor potential cation channel subfamily V member 4 (Rattus norvegicus, UniProt Q9ERZ8)
Sequence (Q9ERZ8 whole entry): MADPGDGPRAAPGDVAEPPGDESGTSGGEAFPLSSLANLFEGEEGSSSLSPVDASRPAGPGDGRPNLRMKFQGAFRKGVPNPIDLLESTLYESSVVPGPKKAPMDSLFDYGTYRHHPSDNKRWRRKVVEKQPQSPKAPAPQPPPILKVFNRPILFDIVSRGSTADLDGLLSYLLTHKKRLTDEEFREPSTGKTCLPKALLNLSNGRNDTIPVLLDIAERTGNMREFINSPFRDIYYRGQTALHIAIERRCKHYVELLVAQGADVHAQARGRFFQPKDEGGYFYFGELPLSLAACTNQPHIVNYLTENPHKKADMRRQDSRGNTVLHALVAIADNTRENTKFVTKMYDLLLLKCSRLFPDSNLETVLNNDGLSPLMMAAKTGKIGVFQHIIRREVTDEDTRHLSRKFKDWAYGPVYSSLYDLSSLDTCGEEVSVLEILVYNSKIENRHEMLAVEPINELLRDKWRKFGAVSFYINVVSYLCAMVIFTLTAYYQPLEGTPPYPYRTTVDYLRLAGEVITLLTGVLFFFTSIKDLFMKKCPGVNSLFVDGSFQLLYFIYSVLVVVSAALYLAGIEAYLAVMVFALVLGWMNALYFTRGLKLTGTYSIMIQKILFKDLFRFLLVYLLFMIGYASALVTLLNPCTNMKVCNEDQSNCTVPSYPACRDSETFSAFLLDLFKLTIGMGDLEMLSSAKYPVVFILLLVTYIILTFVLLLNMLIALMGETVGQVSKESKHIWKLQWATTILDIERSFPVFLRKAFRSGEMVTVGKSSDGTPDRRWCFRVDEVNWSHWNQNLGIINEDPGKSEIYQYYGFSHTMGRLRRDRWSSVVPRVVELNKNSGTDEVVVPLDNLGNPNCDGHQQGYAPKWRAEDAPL
assay info: Antagonist activity at rat TRPV4 expressed in HEK293 cells assessed as inhibition of 20% hypotonic solution-induced Ca2+ influx
Assay type: cell-based

structure smiles | IC50, µM
CC(C)N1CCN(S(=O)(=O)c2ccc(NC(=O)c3ccc(C(F)(F)F)cc3[N+](=O)[O-])cc2)CC1 | 2.1

* * *

experimental system: Transient receptor potential cation channel subfamily V member 1 (Homo sapiens, UniProt Q8NER1)
Sequence (Q8NER1 whole entry): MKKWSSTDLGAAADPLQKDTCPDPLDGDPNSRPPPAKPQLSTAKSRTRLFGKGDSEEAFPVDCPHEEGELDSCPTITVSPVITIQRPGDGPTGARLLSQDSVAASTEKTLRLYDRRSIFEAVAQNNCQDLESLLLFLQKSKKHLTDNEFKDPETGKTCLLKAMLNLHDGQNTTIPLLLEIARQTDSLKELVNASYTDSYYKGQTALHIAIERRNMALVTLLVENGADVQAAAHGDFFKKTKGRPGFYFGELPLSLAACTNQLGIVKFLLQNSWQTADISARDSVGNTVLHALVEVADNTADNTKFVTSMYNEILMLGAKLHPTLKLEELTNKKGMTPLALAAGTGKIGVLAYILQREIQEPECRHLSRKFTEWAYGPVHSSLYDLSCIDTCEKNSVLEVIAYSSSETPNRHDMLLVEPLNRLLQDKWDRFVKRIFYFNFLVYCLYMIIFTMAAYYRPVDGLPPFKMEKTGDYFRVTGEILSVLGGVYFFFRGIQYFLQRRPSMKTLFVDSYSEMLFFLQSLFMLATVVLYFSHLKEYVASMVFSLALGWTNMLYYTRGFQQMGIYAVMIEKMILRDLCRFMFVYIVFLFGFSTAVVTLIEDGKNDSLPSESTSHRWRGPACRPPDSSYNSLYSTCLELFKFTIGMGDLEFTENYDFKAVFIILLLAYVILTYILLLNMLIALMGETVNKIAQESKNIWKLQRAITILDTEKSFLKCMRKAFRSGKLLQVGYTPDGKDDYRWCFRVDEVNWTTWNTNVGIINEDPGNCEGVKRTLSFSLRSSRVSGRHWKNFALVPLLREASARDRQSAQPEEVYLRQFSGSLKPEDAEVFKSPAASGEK
assay info: Antagonist activity at human TRPV1 receptor expressed in HEK293 cells assessed as inhibition of capsaicin-stimulated calcium flux after 10 mins
measurement type: IC50

structure smiles | value reported
CC(C)N1CCN(S(=O)(=O)c2ccc(NC(=O)c3ccc(C(F)(F)F)cc3[N+](=O)[O-])cc2)CC1 | > 10 µM

* * *

assay info: AUC (infinity) in Wistar rat at 29.73 mg/kg, po
Assay type: ADME, organism-based
Set-up: dose 29.73 mg/kg, time infinity, route oral
particulars: in vivo

structure smiles | AUC(0-inf), ng·h/mL
CC(C)N1CCN(S(=O)(=O)c2ccc(NC(=O)c3ccc(C(F)(F)F)cc3[N+](=O)[O-])cc2)CC1 | 10100

* * *

Listed here are compounds together with their documented pIC50.
experimental system: UniProtKB Q9HBA0
assay info: Antagonist activity at human TRPV4 receptor expressed in HEK293 cells assessed as inhibition of EC80 of 4alpha-PDD-stimulated calcium flux after 10 mins
Format: cell-based
pIC50: −log10 of the molar value.

structure smiles | pIC50
CC(C)N1CCN(S(=O)(=O)c2ccc(NC(=O)c3ccc(C(F)(F)F)cc3C(F)(F)F)cc2)CC1 | 6.27
CC(C)N1CCCN(S(=O)(=O)c2ccc(NC(=O)c3ccc(C(F)(F)F)cc3)cc2)CC1 | 5.88
CC(C)N1CCN(S(=O)(=O)c2ccc(NC(=O)c3ccccc3)cc2)CC1 | 5.07
CC(C)N1CCN(S(=O)(=O)c2ccc(NC(=O)c3ccc(S(F)(F)(F)(F)F)cc3)cc2)CC1 | 6.59
CC(C)N1CCN(S(=O)(=O)c2ccc(NC(=O)c3ccc(C(F)(F)F)cc3[N+](=O)[O-])cc2)CC1 | 6.38
O=C(Nc1ccc(S(=O)(=O)N2CCN(C3CCCC3)CC2)cc1)c1ccc(C(F)(F)F)cc1 | 6.10
CN(C)S(=O)(=O)c1ccc(NC(=O)c2ccc(C(F)(F)F)cc2)cc1 | 5.37
CCN(C)C1CCN(S(=O)(=O)c2ccc(NC(=O)c3ccc(C(F)(F)F)cc3)cc2)CC1 | 5.89
CC(C)N1CCN(S(=O)(=O)c2ccc(NC(=O)c3cccc(C(F)(F)F)c3)cc2)CC1 | 5.66
CC(C)N1CCN(S(=O)(=O)c2ccc(NC(=O)c3ccc(-c4ncccc4Cl)cc3)cc2)CC1 | 6.03

* * *

assay info: AUC (infinity) in Wistar rat at 1.05 mg/kg, iv
Format: ADME, organism-based
Parameters: dose 1.05 mg/kg, route intravenous, time infinity
particulars: in vivo
measurement type: AUC(0-inf) (ng·h/mL)

structure smiles | value reported
CC(C)N1CCN(S(=O)(=O)c2ccc(NC(=O)c3ccc(S(F)(F)(F)(F)F)cc3)cc2)CC1 | 779

* * *

assay info: Half life in Wistar rat at 1.05 mg/kg, iv
Assay type: ADME, organism-based
particulars: in vivo

structure smiles | half-life [h]
CC(C)N1CCN(S(=O)(=O)c2ccc(NC(=O)c3ccc(S(F)(F)(F)(F)F)cc3)cc2)CC1 | 1.03
